Target: T1, mesothelin-Fc recombinant protein (human, UniProt Q13421 296-580, limits assumed)
T1 construct: construct not described; also called Meso-Fc; not shown: Fc part
T1 sequence (Q13421 other isoform, or with tags, fused parts or gaps limits assumed): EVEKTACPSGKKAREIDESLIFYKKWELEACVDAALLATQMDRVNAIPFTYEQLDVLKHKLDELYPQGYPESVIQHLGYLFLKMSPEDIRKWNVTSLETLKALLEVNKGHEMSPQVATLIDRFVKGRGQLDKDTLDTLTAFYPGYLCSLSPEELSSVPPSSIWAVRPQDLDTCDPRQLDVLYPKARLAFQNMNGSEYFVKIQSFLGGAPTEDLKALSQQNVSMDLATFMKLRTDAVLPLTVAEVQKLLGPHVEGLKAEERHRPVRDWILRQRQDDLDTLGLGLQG
Assay: flow cytometry, T cells with CAR mRNA, mesothelin-Fc + PE-anti-IgG-Fc; Control 0.63
reportedEndpoint: percent of cells in the gate (%)
A number alone suffices; assume %.

{"binder": "anti-mesothelin scFv-M13 (scFv, On mRNA-electroporated T cells as CAR) scFv: AIRMTQSPSSLSASVGDRVTITCRASQGISNSLAWYQQKPGKAPKLLLYAASRLESGVPSRFSGSGSGTDYTLTISSLQPEDFATYYCQQYYSTPFTFGPGTKLEIKGGGGSGGGGSGGGGSQVQLVQSGAEVKKPGSSVKVSCKTSADTFSANTINWVRQAPGHGLEWMGRIIPSLNIRDYAQEFQGRVTFTADESTNTVYMQLTSLRSEDTAVYYCARDPGSTWSPNQFFPHWGQGTLVTVSS", "unitName": "%", "percent of cells in the gate": 71.1}
{"binder": "anti-mesothelin scFv-M15 (scFv, On mRNA-electroporated T cells as CAR) scFv: DIQLTQSPSSLSASIGDRVTITCRASQGVNSALAWYQQKPGKPPNLLIYDASSLESGVPSRFSGSGSGRDFTLTISSLQPEDFATYYCQQFSSYPLTFGGGTKVDIKGGGGSGGGGSGGGGSQVQLVQSGAEVKKPGASVKVSCKASGYTFTSYYMHWVRQAPGQGLEWMGIINPSGGSTSYAQKFQGRVTMTRDTSTSTVYMELSSLRSEDTAVYYCARAQRGGSVYFDYWGQGTLVTVSS", "unitName": "%", "percent of cells in the gate": 48.8}
{"binder": "anti-mesothelin scFv-M12 (scFv, On mRNA-electroporated T cells as CAR; also called Meso-CAR (M12)) scFv: AIRLTQSPSLLSASVGDRVTVTCRASQGGGNYLAWYQQKPGKAPKLLIYGASKLQSGVPSRFSGSGSGTEFTLTISSLQPEDFATYYCQQLNSYPVTFGQGTKVDIKGGGGSGGGGSGGGGSEVQLVESGAEVKKPGASVKVSCKASGYTFTTYYIHWVRQAPGQGLEWMGIINPSSGSTTYTQKFQGRVTMTRDTSTSTVYIELSGLRSEDTAVYYCARGETLRGYFDYWGQGTLVTVSS", "unitName": "%", "percent of cells in the gate": 86.5}

For the next question, use this binder.
Bench note: what percent of cells in the gate did anti-mesothelin scFv-M8 (scFv, On mRNA-electroporated T cells as CAR) scFv: DIQLTQSPSSLSASVGDRVTITCRASQSISSSLNWYQQKPGKAPKLLIYAASSLQSGVPSRFSGSGSGTDFTLTISSLQPEDFATYSCQQSYSTPLTFGGGTKVEIKGGGGSGGGGSGGGGSQVHLVESGGGVVQPGRSLRVSCAASGFTFSGYAMYWVRQAPGKGLEYVSAITTNGGSTNYADSVKGRFTISRDNSKNTLYLQMSSLRAGDTAVYYCARGAPGYRGYYMDVWGKGTTVTVSS show? 80.8
